# SYSTEM TESTED: Stimulator of interferon genes protein (Mus musculus, UniProt Q3TBT3)
# Sequence (Q3TBT3 whole entry): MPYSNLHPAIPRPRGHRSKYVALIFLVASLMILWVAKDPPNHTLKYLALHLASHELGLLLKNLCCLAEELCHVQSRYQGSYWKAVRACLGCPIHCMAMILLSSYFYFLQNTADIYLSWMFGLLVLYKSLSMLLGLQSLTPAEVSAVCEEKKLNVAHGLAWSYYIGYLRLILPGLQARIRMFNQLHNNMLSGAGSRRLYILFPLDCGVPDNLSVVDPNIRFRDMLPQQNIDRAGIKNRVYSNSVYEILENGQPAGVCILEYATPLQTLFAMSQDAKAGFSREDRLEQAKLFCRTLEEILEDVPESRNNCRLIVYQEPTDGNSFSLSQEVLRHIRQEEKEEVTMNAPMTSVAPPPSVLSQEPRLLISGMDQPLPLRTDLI
# ASSAY: Inhibition of cGAMP-induced mouse STING transfected in human THP-1 cells preincubated with compound for 6 hrs followed by cGAMP addition and measured after 18 hrs by QUANTI-Luc based microplate reader analysis
Item-by-item account of pIC50
# pIC50 = -log10(concentration in molar units)

These recorded examples may help you get a feel for the data.
COc1ccc2c(c1)C(=O)N(c1ccc(C(C)(C)C)c(Cl)c1)C(c1cc3cc(-c4ccc(C(=O)Nc5ccc(O)c(NS(C)(=O)=O)c5)cc4)ccc3o1)C2C(N)=O (stereo not drawn)
7.52
COc1ccc2c(c1)C(=O)N(c1ccc(C(C)(C)C)c(F)c1)C(c1cc3cc(-c4ccc(C(=O)Nc5ccc(O)c(NS(C)(=O)=O)c5)cc4)ccc3o1)C2C(N)=O (stereo not drawn)
7.52

Turning now to a further compound:
Input: Please give measured pIC50 of the following entry: CC(C)(C)c1ccc(N2C(=O)c3ccccc3C(C(N)=O)C2c2cc3cc(-c4ccc(C(=O)Nc5ccc(O)c(NS(C)(=O)=O)c5)cc4)ccc3o2)cc1Cl (stereo not drawn)
Output: 7.70

====

# ASSAY: Cytotoxicity against human THP1-Blue ISG cells assessed as inhibition of cell growth at 10 uM incubated for 24 hrs by MTS assay relative to control
# Assay type: toxicity, cell-based
PROPERTY LABEL: inhibition at 24 h, 10 µM (%)
Please respond with the number in % and leave the unit unwritten.

Input: State, in one line, measured inhibition at 24 h, 10 µM of CC(C)(C)c1ccc(N2C(=O)c3cc(F)ccc3C(C(N)=O)C2c2cc3cc(-c4ccc(C(=O)Nc5ccc(O)c(NC(=O)C(F)(F)F)c5)cc4)ccc3s2)cc1Cl (stereo unspecified)
Output: 12.5

====

# ASSAY: Metabolic stability in mouse plasma assessed as half life in presence of NADPH by LC-MS/MS analysis
# Type: ADME, cell-free
Documented half-life across a set of molecules

COc1ccc2c(c1)C(=O)N(c1ccc(C(C)(C)C)c(F)c1)C(c1cc3cc(-c4ccc(C(=O)Nc5ccc(O)c(NS(C)(=O)=O)c5)cc4)ccc3o1)C2C(N)=O (stereo not drawn)
> 4 h
CCS(=O)(=O)Nc1cc(NC(=O)c2ccc(-c3ccc4oc(C5C(C(N)=O)c6ccccc6C(=O)N5c5ccc(C(C)(C)C)c(Cl)c5)cc4c3)cc2)ccc1O (stereo not drawn)
> 4 h

Consider the additional molecule presented here.
Input: Specify measured half-life for COc1ccc2c(c1)C(=O)N(c1ccc(C(C)(C)C)c(Cl)c1)C(c1cc3cc(-c4ccc(C(=O)Nc5ccc(O)c(NS(C)(=O)=O)c5)cc4)ccc3o1)C2C(N)=O (stereo not drawn) .
Output: > 4 h

====

# SYSTEM TESTED: Stimulator of interferon genes protein (Homo sapiens, UniProt Q86WV6, G230A/R293Q/R71H)
# Sequence (Q86WV6 whole entry R71H/G230A/R293Q): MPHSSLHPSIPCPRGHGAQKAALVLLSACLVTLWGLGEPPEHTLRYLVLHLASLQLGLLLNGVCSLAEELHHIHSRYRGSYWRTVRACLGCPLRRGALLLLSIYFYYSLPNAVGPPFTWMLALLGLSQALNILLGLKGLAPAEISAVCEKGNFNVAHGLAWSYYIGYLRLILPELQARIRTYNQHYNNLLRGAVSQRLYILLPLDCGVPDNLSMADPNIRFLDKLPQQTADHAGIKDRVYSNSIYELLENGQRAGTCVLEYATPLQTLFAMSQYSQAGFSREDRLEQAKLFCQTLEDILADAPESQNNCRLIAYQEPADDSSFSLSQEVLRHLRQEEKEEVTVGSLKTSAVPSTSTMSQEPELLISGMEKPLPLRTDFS
# ASSAY: Inhibition of diABZI-induced STING HAQ mutant transfected in human THP1-Blue ISG cells preincubated with compound for 6 hrs followed by diABZI addition and measured after 18 hrs by QUANTI-Blue based microplate reader analysis
# Assay type: cell-based
Documented pIC50 across a set of compounds
Note on pIC50: it is the negative log10 of concentration, concentration in mol/L.

COc1ccc2c(c1)C(=O)N(c1ccc(C(C)(C)C)c(F)c1)C(c1cc3cc(-c4ccc(C(=O)Nc5ccc(O)c(NS(C)(=O)=O)c5)cc4)ccc3o1)C2C(N)=O (stereo not drawn)
6.92
CC(C)(C)c1ccc(N2C(=O)c3ccccc3C(C(N)=O)C2c2cc3cc(-c4ccc(C(=O)Nc5ccc(O)c(NS(C)(=O)=O)c5)cc4)ccc3o2)cc1Cl (stereo not drawn)
6.96

Now for another entry.
Input: Given the compound COc1ccc2c(c1)C(=O)N(c1ccc(C(C)(C)C)c(Cl)c1)C(c1cc3cc(-c4ccc(C(=O)Nc5ccc(O)c(NS(C)(=O)=O)c5)cc4)ccc3o1)C2C(N)=O (stereo not drawn) , write its reported pIC50.
Output: 7.10

====

pIC50 values by entry
# SYSTEM TESTED: Stimulator of interferon genes protein (Homo sapiens, UniProt Q86WV6, G230A/R293Q/R71H)
# ASSAY: Inhibition of cGAMP-induced STING HAQ mutant transfected in human THP1-Blue ISG cells preincubated with compound for 6 hrs followed by cGAMP addition and measured after 18 hrs by QUANTI-Blue based microplate reader analysis
# Format: cell-based
Field pIC50 (float): negative decimal logarithm of the concentration in molar.

Worked examples follow.
CC(C)(C)c1ccc(N2C(=O)c3cc(F)ccc3C(C(N)=O)C2c2ccc3sc(-c4ccc(C(=O)Nc5ccc(O)c(NS(C)(=O)=O)c5)cc4F)cc3c2)cc1Cl (stereo not drawn)
6.10
CN(c1ccc(C(=O)Nc2ccc(O)c(NS(C)(=O)=O)c2)cc1)c1ccc(C2C(C(N)=O)c3ccccc3C(=O)N2c2ccc(C(C)(C)C)c(Cl)c2)cc1 (stereo not drawn)
6.09
CC(C)(C)c1ccc(N2C(=O)c3ccccc3C(C(N)=O)C2c2ccc3sc(-c4ccc(C(=O)Nc5ccc(O)c(NS(C)(=O)=O)c5)cc4)cc3c2)cc1Cl (stereo not drawn)
6.74
CS(=O)(=O)Nc1cc(NC(=O)c2ccc(-c3ccc4oc(C5C(C(N)=O)c6ccccc6C(=O)N5c5ccc(C6CC6)cc5)cc4c3)cc2)ccc1O (stereo not drawn)
6.57
CC(C)(C)c1ccc(N2C(=O)c3ccccc3C(C(N)=O)C2c2cc3cc(-c4ccc(C(=O)Nc5ccc(O)c(NS(C)(=O)=O)c5)cc4)ccc3o2)cc1Cl (stereo not drawn)
7.00

Input: Return reported pIC50. Input compound: CC(C)(C)c1ccc(N2C(=O)c3ccccc3C(C(N)=O)C2c2ccc(Nc3ccc(C(=O)Nc4ccc(O)c(NS(C)(=O)=O)c4)cc3)cc2)cc1Cl (stereo not drawn)
Output: 5.49

Input: For the compound CC(C)(C)c1ccc(N2C(=O)c3ccccc3C(C(N)=O)C2c2cc3cc(-c4ccc(C(=O)Nc5ccc(O)c(NS(C)(=O)=O)c5)cn4)ccc3o2)cc1Cl (stereo not drawn) , give its reported pIC50.
Output: 6.85

Input: Tell me pIC50 reported for COc1ccc2c(c1)C(=O)N(c1ccc(C(C)(C)C)c(Cl)c1)C(c1cc3cc(-c4ccc(C(=O)Nc5ccc(O)c(NS(C)(=O)=O)c5)cc4)ccc3o1)C2C(N)=O (stereo not drawn)
Output: 7.10

====

Overview of recorded pIC50 for various compounds
# SYSTEM TESTED: Stimulator of interferon genes protein (Homo sapiens, UniProt Q86WV6, G230A/R293Q/R71H)
# ASSAY: Inhibition of cGAMP-induced STING HAQ mutant transfected in human THP1-Blue ISG cells preincubated with compound for 6 hrs followed by cGAMP addition and measured after 18 hrs by QUANTI-Blue based microplate reader analysis
# Assay type: cell-based
pIC50: −log10 of the molar value.

Guide cases for pIC50, answers given:
CC(C)(C)c1ccc(N2C(=O)c3ccccc3C(C(N)=O)C2c2ccc3c(c2)C=C(c2ccc(C(=O)Nc4ccc(O)c(NS(C)(=O)=O)c4)cc2)S3(=O)=O)cc1Cl (stereo not drawn)
< 5.00
CC(=O)Nc1cc(NC(=O)c2ccc(Oc3ccc(C4C(C(N)=O)c5ccccc5C(=O)N4c4ccc(C(C)(C)C)c(Cl)c4)cc3)cc2)ccc1C (stereo not drawn)
< 5.00

Input: Return pIC50 for the following compound: CS(=O)(=O)Nc1cc(NC(=O)c2ccc(-c3ccc4oc(C5C(C(N)=O)c6ccccc6C(=O)N5c5ccccc5)cc4c3)cc2)ccc1O (stereo not drawn)
Output: 5.44

Input: Hello, please tell me recorded pIC50 for this one: CC(C)(C)c1ccc(N2C(=O)c3ccccc3C(C(N)=O)C2c2ccc(Oc3ccc(C(=O)Nc4ccc(CO)c(NS(C)(=O)=O)c4)cc3)cc2)cc1Cl (stereo not drawn)
Output: < 5.00

Input: Please give the documented pIC50 of CC(C)(C)c1ccc(N2C(=O)c3ccccc3C(C(N)=O)C2c2cc3cc(-c4ncc(C(=O)Nc5ccc(O)c(NS(C)(=O)=O)c5)cn4)ccc3o2)cc1Cl (stereo not drawn)
Output: < 5.00

====

# ASSAY: Cytotoxicity against human THP1-Blue ISG cells assessed as inhibition of cell growth at 10 uM incubated for 24 hrs by MTS assay relative to control
# Type: toxicity, cell-based
Binning of inhibition at 24 h, 10 µM into classes: category 1 = under 20%, category 2 = from 20% up to 40%, category 3 = 40% and over

CC(C)(C)c1ccc(N2C(=O)c3ccccc3C(C(N)=O)C2c2cc3cc(-c4ccc(C(=O)N[C@H]5CC[C@@H](O)CC5)cc4)ccc3o2)cc1Cl (stereo partly drawn)
category 3
CC(C)(C)c1ccc(N2C(=O)c3ccccc3C(C(N)=O)C2c2ccc3oc(-c4ccc(C(=O)Nc5ccc(O)c(NS(C)(=O)=O)c5)cc4)cc3c2)cc1Cl (stereo not drawn)
category 1
CC(C)(C)c1ccc(N2C(=O)c3cc(F)ccc3C(C(N)=O)C2c2ccc3sc(-c4ccc(C(=O)Nc5ccc(O)c(NS(C)(=O)=O)c5)cc4F)cc3c2)cc1Cl (stereo not drawn)
category 1
COc1ccc2c(c1)C(=O)N(c1ccc(C(C)(C)C)c(F)c1)C(c1cc3cc(-c4ccc(C(=O)Nc5ccc(O)c(NS(C)(=O)=O)c5)cc4)ccc3o1)C2C(N)=O (stereo not drawn)
category 2
CS(=O)(=O)Nc1cc(NC(=O)c2ccc(-c3ccc4oc(C5C(C(N)=O)c6ccccc6C(=O)N5c5ccc6c(c5)CCCC6)cc4c3)cc2)ccc1O (stereo not drawn)
category 2
CS(=O)(=O)Nc1cc(NC(=O)c2ccc(-c3ccc4oc(C5C(C(N)=O)c6ccccc6C(=O)N5c5ccc(Br)c(Cl)c5)cc4c3)cc2)ccc1O (stereo not drawn)
category 3
CC(C)(C)c1ccc(N2C(=O)c3ccccc3C(C(N)=O)C2c2ccc(Oc3ccc(C(=O)Nc4ccc(O)cc4)cc3)cc2)cc1Cl (stereo not drawn)
category 2
CS(=O)(=O)Nc1cc(NC(=O)c2ccc(-c3ccc4oc(C5C(C(N)=O)c6ccccc6C(=O)N5c5ccc(C6CC6)c(Cl)c5)cc4c3)cc2)ccc1O (stereo not drawn)
category 3
CC(C)(C)c1ccc(N2C(=O)c3cc(F)ccc3C(C(N)=O)C2c2ccc3sc(-c4ccc(C(=O)Nc5ccc(O)c(NS(C)(=O)=O)c5)cc4)cc3c2)cc1Cl (stereo not drawn)
category 1
CC(C)(C)c1ccc(N2C(=O)c3ccccc3C(C(N)=O)C2c2ccc(Oc3ccc(C(=O)Nc4cccc(NS(C)(=O)=O)c4)cc3)cc2)cc1Cl (stereo not drawn)
category 1

Input: # bin lookup: classify CC(C)(C)c1ccc(N2C(=O)c3ccccc3C(C(N)=O)C2c2cc3cc(-c4ccc(NC(=O)c5cc(O)cc(NS(C)(=O)=O)c5)cc4)ccc3s2)cc1Cl (stereo not drawn) by its inhibition at 24 h, 10 µM
Output: category 3

Input: Dear colleague, I would appreciate it if you could identify the bin for CC(C)(C)c1ccc(N2C(=O)c3ccccc3C(C(N)=O)C2c2cc3cc(-c4ccc(C(=O)Nc5ccc(O)c(NC(=O)C(F)(F)F)c5)cc4)ccc3o2)cc1Cl (stereo not drawn) and reply at your convenience.
Output: category 1

Input: Just checking, what class would you give CC(=O)Nc1cc(NC(=O)c2ccc(Oc3ccc(C4C(C(N)=O)c5ccccc5C(=O)N4c4ccc(C(C)(C)C)c(Cl)c4)cc3)cc2)ccc1O (stereo not drawn) here?
Output: category 3
